assay: modulators of CIT2-GFP expression in yeast, confirmation, S. cerevisiae, GFP fusion, cherry picks, mother/daughter gates (AID 2274); conditions: S. cerevisiae CIT2-GFP strain, flow cytometry, 3 h; measured here: mother cell gate; at 10 µM; stronger effect = higher value
measureName: GFP response, % of DMSO (%)

compound	unitsLabel	assayValue
COc1ccccc1N1CCN(C2CCCN(Cc3cc(F)cc(F)c3)C2)CC1 (stereo not given)	%	104
Cc1ccc(-n2ncc(C#N)c2/N=C/N(C)C)cc1	%	79.7
COc1ccc(-c2csc(NC(=O)c3ccco3)n2)cc1	%	96.8
O=C(COC(=O)c1cccs1)Nc1nc(-c2ccccc2)cs1	%	96.1
O=C1C2C3C=CC(CNS(=O)(=O)c4ccccc4)(O3)C2C(=O)N1c1ccc(Cl)cc1 (stereo not given)	%	108
Cc1cc(C)c(C)c(S(=O)(=O)ON2C(=O)c3ccccc3C2=O)c1C	%	91
COc1cc(NC(=O)c2ccc(Br)cc2)ccc1NC(=O)c1cc2ccccc2o1	%	97.7
O=c1/c(=C/c2cccc3ccccc23)sc2ncnn12	%	100
COc1ccccc1C1CC(c2c(-c3ccccc3)c3cc(Cl)ccc3[nH]c2=O)=NN1S(C)(=O)=O (stereo not given)	%	112
O=C(/C=C/c1ccnc2ccccc12)c1cccs1	%	84
Cc1nn(Cc2ccc([N+](=O)[O-])cc2)c(=O)n1-c1cccc(Cl)c1	%	99.7
NS(=O)(=O)c1ccc(S(=O)(=O)c2ccccc2)nc1	%	102
Oc1c(C(Nc2nc3ccccc3s2)c2ccco2)ccc2cccnc12 (stereo not given)	%	94.9
COc1ccc(CNC(=O)c2c(O)c3ccccc3n(C)c2=O)cc1OC	%	103
CCCc1[nH]nc2c1C(c1ccc(OC)c(Cn3nnc4ccccc43)c1)C(C#N)=C(N)O2 (stereo not given)	%	99.7
Clc1cccc(Cn2ncc3ccccc32)c1	%	95
COc1ccc(N2CCN(C(=O)CCc3nnc4ccc(N5CCCC5)nn34)CC2)cc1	%	104
Clc1ccccc1N=C1NN=C(c2cccs2)CS1	%	89.5
c1ccc(-c2n[nH]c3ccccc23)cc1	%	97.3
CCC(=O)Oc1oc(-c2ccccc2)nc1C=Nc1ccccc1OC	%	92.6
O=C(OCc1cc(Cl)ccc1OC(F)F)c1ccc([N+](=O)[O-])o1	%	92.3
COc1ccc(/C=C2/C(=O)ON=C2c2ccccc2)cc1OC	%	95.6
COc1ccccc1NC1=C(Cl)C(=O)N(c2ccccc2)C1=O	%	101
Cc1ccc2[nH]cc(/C=C/c3cc[n+](C)cc3)c2c1	%	140
COc1ccc(-c2cc(=O)n(-c3nc4ccccc4[nH]3)[nH]2)cc1	%	94.4
CCOC(=O)c1cnn(-c2cc(C)nc3c(-c4ccccc4)cnn23)c1N	%	98.2
CCc1ccc2c(c1)C1(NN=C(c3cccc4ccccc34)S1)C(=O)N2 (stereo not given)	%	88.2
CCOC(=O)c1ccc(NC(=O)CCc2nc(-c3ccccc3)no2)cc1	%	98.2
O=C(Cc1ccc(-c2ccccc2)cc1)OCC(=O)N1CCCC1=O	%	91.2
O=C(N/N=C/c1ccc(OCCCF)cc1)c1cc(OCC(F)(F)F)ccc1OCC(F)(F)F	%	97.7
